System: NOMO1
experiment: AUC of viability dose-response curve (% viability x log10 dose units); higher = less sensitive
conditions_used: RPMI 5 mM glucose + 10% dialyzed FBS; 48 h
measurement_kind: AUC of viability dose-response curve
Please state the value as a number alone, without comment.

Query: Reported AUC of viability dose-response curve, molecule `Nc1nccc(-c2ccc3noc(-c4ccc(Cl)cc4)c3c2)n1` : ____
Result: 469

Query: Again, but for `COc1nc(N)nc2c1ncn2[C@@H]1O[C@H](CO)[C@@H](O)[C@@H]1O`
Result: 448

Query: Then `CC1(C)CCC(C)(C)c2cc(NC(=O)c3ccc(C(=O)O)cc3)ccc21` ?
Result: 435

Query: Same read-out for `O=C(O)c1cccc(-c2noc(-c3ccccc3F)n2)c1` ?
Result: 465

Query: Again, but for `CCc1cnn2c(NCc3ccc[n+]([O-])c3)cc(N3CCCC[C@H]3CCO)nc12`
Result: 223

Query: Entry `O=C1NC(=O)/C(=C/c2ccc3c(c2)OC(F)(F)O3)S1` please
Result: 457

Query: Try the molecule C#CCC(Cc1cnc2nc(N)nc(N)c2n1)c1ccc(C(=O)N[C@@H](CCC(=O)O)C(=O)O)cc1 (stereo partly drawn)
Result: 265

Query: Query `CC(C)CC(=O)Nc1n[nH]c2c1CN(C(=O)C1CCN(C)CC1)C2(C)C` next
Result: 325

Query: What do you get for `O=C1\C=C(OC2=C(C=CC=C12)C3=CC=CC4=C3SC5=C4C=CC=C5)\N6CCOCC6` ?
Result: 467

Query: Repeat for the following molecule: CCCC[S+](=N)([O-])CCC(N)C(=O)O (stereo not drawn)
Result: 461

Query: # iterate: `Cc1nnc(C(C)C)n1[C@@H]1C[C@H]2CC[C@@H](C1)N2CC[C@H](NC(=O)C1CCC(F)(F)CC1)c1ccccc1`
Result: 394

Query: What do you get for `FC1=CC2=C3[N](CCN(CC3=C1)C(=O)N4CCCCC4)C=C2C/5=C(C(=O)NC5=O)\C6=CN=C7C=CC=C[N]67` ?
Result: 463

Query: Now consider `CC(C)C[C@H](CC(=O)O)C(=O)N[C@@H](Cc1c[nH]c2ccccc12)C(=O)N[C@@H](C)c1ccccc1` and answer again.
Result: 465

Query: What about `Cc1oncc1C(=O)Nc1ccc(C(F)(F)F)cc1` ?
Result: 422

Query: Also need `CCC(=O)N1CCN(CC1)C2=C(C=C(C=C2)N3C(=O)\C=C/C4=C3C5=CC(=CC=C5N=C4)C6=CN=C7C=CC=CC7=C6)C(F)(F)F` , thanks.
Result: 352

Query: CC(O)(C[S+](=O)([O-])c1ccc(F)cc1)C(=O)Nc1ccc(C#N)c(C(F)(F)F)c1 (stereo not drawn) ?
Result: 436

Query: How about `COc1c(N2C[C@@H]3CCCN[C@@H]3C2)c(F)cc2c(=O)c(C(=O)O)cn(C3CC3)c12.Cl.O` ?
Result: 437

Query: Another molecule to look at: `CC[C@H](C)C(=O)O[C@H]1C[C@@H](C)\C=C2\C=C/[C@H](C)[C@H](CC[C@@H]3C[C@@H](O)CC(=O)O3)[C@@H]12`
Result: 411

From: the supplement of paper PMC11451515
